system: Plasmodium falciparum; assay: MMV: Measure of pLDH activity as indication of parasite viability. Gametocytogenesis of 3D7 Plasmodium falciparum strain was induced in vitro and asexual parasites were depleted with N-acetylglucosamine. Gametocytes were treated with dihydroartemisinin, epoxomicin, methylene blue, primaquine, puromycin or chloroquine in 96-well plates and the pLDH activity was evaluated using a modified Makler protocol. Mosquito infectivity was measured by the standard membrane feeding assay.; format: functional; set-up: concentration or dose not given beside the values
observed_property: Growth Inhibition (%)
Just the number please, in %, no unit attached.

Previously resolved entries follow.
{"compound": "COc1cccc(C2(C)Nc3ccccc3-c3nc4ccccc4n32)c1 (stereo not drawn)", "target_or_test_system": "Plasmodium falciparum", "measurement": 2.1776}
{"compound": "Cc1ccc(CSCc2ccc(C(=O)NC3CC3)o2)cc1", "target_or_test_system": "Plasmodium falciparum", "measurement": 9.7118}

**Q:** Look up Plasmodium falciparum data: Growth Inhibition of `Cn1c(C(=O)c2cccc3ccccc23)nc2ccccc21` , then report it.
**A:** -3.612

**Q:** Look up Plasmodium falciparum data: Growth Inhibition of CC(C)(C)CC(C)(C)NCC(O)COc1ccc2c(c1)CCC2.Cl (stereo not drawn) , then report it.
**A:** 14.2274

**Q:** Look up Plasmodium falciparum data: Growth Inhibition of `Brc1ccc(Nc2nc3ccccc3nc2Nc2ccc(Br)cc2)cc1` , then report it.
**A:** 6.7896

* * *

system: Plasmodium falciparum; assay: MMV: Measure of pLDH activity as indication of parasite viability. Gametocytogenesis of 3D7 Plasmodium falciparum strain was induced in vitro and asexual parasites were depleted with N-acetylglucosamine. Gametocytes were treated with dihydroartemisinin, epoxomicin, methylene blue, primaquine, puromycin or chloroquine in 96-well plates and the pLDH activity was evaluated using a modified Makler protocol. Mosquito infectivity was measured by the standard membrane feeding assay.; format: functional; parameters: concentration or dose not given beside the values
# Lookup of reported Growth Inhibition keyed by entry
Reply with the number, then its unit.

{"molecule": "CCC(C)NCC(O)(c1ccc(Cl)cc1)c1ccc(Cl)cc1 (configuration not stated)", "target_or_test_system": "Plasmodium falciparum", "Growth Inhibition": "29.3926%"}
{"molecule": "Cc1ccc(Nc2nc(N)c3ccccc3n2)cc1Cl", "target_or_test_system": "Plasmodium falciparum", "Growth Inhibition": "23.2734%"}
{"molecule": "CN(N=O)C1=C(NC2CCCCC2)C(=O)c2ccccc2C1=O", "target_or_test_system": "Plasmodium falciparum", "Growth Inhibition": "32.2%"}
{"molecule": "Cc1cccc(-n2ncc3c(O)nc(-n4nc(C)cc4NC(=O)c4cc5ccccc5o4)nc32)c1", "target_or_test_system": "Plasmodium falciparum", "Growth Inhibition": "60.253%"}
{"molecule": "CCN(CC)CCNc1ccnc2cc3ccccc3cc12.O=P(O)(O)O", "target_or_test_system": "Plasmodium falciparum", "Growth Inhibition": "12.0652%"}
{"molecule": "COc1cccc(-c2nn(C)c3sc(C(=O)NCCN4CCN(c5ccccc5F)CC4)cc23)c1", "target_or_test_system": "Plasmodium falciparum", "Growth Inhibition": "20.4084%"}
{"molecule": "CN1CCN(c2c3c(c(C#N)c4nc5ccccc5n24)CCC3)CC1", "target_or_test_system": "Plasmodium falciparum", "Growth Inhibition": "7.7684%"}
{"molecule": "OC(CNC1CCCCC1)Cn1c2ccc(I)cc2c2cc(I)ccc21 (configuration not stated)", "target_or_test_system": "Plasmodium falciparum", "Growth Inhibition": "78.0014%"}
{"molecule": "Cc1ccc(C)c(Cn2c(N3CCC(C(=O)NCc4cccs4)CC3)nc3ccccc32)c1", "target_or_test_system": "Plasmodium falciparum", "Growth Inhibition": "5.2598%"}
{"molecule": "CC(Oc1ccc(NC(=O)c2cccs2)cc1)C(=O)c1ccc(Cl)cc1 (configuration not stated)", "target_or_test_system": "Plasmodium falciparum", "Growth Inhibition": "16.818%"}

**Q:** Retrieve Growth Inhibition measured for `Cl.Cn1c(=O)n(C)c2cc(CNCCNc3ccnc4cc(Cl)ccc34)ccc21` and print it.
**A:** 35.6028%

**Q:** Retrieve Growth Inhibition measured for `Oc1c2c(nc3cc(-c4ccccc4)nn13)CCCC2` and print it.
**A:** 5.0802%

**Q:** Retrieve Growth Inhibition measured for `O=C(O)C(=O)O.Oc1ccccc1CN1CCN(C(c2ccccc2)c2ccccc2)CC1` and print it.
**A:** 27.3522%
